Listed here are binders together with their documented Ratio of PDL1:CD28.
# STUDY_SYSTEM: human PD-L1 (huPD-L1), on stably transduced CHO cells (human) (UniProt Q9NZQ7)
# Sequence (Q9NZQ7 19-290): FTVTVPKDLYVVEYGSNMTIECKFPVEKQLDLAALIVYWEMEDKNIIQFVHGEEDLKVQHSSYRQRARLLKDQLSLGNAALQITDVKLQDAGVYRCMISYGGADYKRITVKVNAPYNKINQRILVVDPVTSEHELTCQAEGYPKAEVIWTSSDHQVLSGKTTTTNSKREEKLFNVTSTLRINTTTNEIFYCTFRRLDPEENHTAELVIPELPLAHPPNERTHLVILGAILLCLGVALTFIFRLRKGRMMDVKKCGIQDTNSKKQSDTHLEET
# ASSAY_NAME: flow cytometry; ratio of MFI on CHO/huPD-L1 cells to MFI on Jurkat (CD28) cells
Output spec: single numeric token, no unit.

Entry variant CD80 IgV-Fc E35D/D46E (Fc fusion) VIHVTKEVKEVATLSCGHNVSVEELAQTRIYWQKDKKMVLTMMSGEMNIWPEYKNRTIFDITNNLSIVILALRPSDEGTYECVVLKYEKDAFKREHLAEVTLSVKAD : reported Ratio of PDL1:CD28 = ?
5

Next:
Entry variant CD80 IgV-Fc Q27H/E35D/M47I (Fc fusion) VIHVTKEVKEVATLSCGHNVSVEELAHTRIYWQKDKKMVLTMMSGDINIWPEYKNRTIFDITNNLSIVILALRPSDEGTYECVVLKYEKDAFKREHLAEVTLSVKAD : reported Ratio of PDL1:CD28 = ?
5
